# credit: patent US11589603B2

Assay: Example 5: effect of inositol isomers on dissolution of L-leucine, LC/UV of filtrate
Assay type: physicochemical
Conditions: 3.50 g L-leucine with 0.1 g/16 oz. inositol isomer; water 21° C., 400 rpm; 60 seconds
ENDPOINT NAME: Leu dissolved at 60 seconds (g/16 oz.)
Kindly answer with a numeric value in g/16 oz., unit omitted.

These solved cases illustrate the format of a correct answer.
molecule="OC1C(O)C(O)C(O)C(O)C1O (stereo not drawn) [muco-inositol]" recorded_value=0.751
molecule="OC1C(O)C(O)C(O)C(O)C1O (stereo not drawn) [cis-inositol]" recorded_value=1.27
molecule="OC1C(O)C(O)C(O)C(O)C1O [L-chiro-inositol]" recorded_value=0.848
molecule="OC1C(O)C(O)C(O)C(O)C1O (stereo not drawn) [epi-inositol]" recorded_value=1.16
molecule="OC1C(O)C(O)C(O)C(O)C1O (stereo not drawn) [allo-inositol]" recorded_value=1.41

Please turn your attention to the following entry.
**Query** Can you share its Leu dissolved at 60 seconds (g/16 oz.)? I mean this molecule: O[C@H]1[C@H](O)[C@@H](O)[C@H](O)[C@@H](O)[C@@H]1O [scyllo-inositol]
**Result** 0.841

----------
Assay: Example 5: effect of inositol isomers on dissolution of L-leucine, LC/UV of filtrate
Type: physicochemical
Conditions: 3.50 g L-leucine with 0.1 g/16 oz. inositol isomer; water 21° C., 400 rpm; 60 seconds
Below: a set of entries, each annotated with reported Leu dissolved at 60 seconds (% of total Leu).

Known results for molecules:
molecule="O[C@H]1[C@H](O)[C@@H](O)[C@H](O)[C@@H](O)[C@@H]1O [scyllo-inositol]" recorded_value="24.0 % of total Leu"
molecule="OC1C(O)C(O)C(O)C(O)C1O (stereo not drawn) [allo-inositol]" recorded_value="40.4 % of total Leu"
molecule="OC1C(O)C(O)C(O)C(O)C1O (stereo not drawn) [epi-inositol]" recorded_value="33.2 ± 10.6 % of total Leu"
molecule="OC1C(O)C(O)C(O)C(O)C1O (stereo not drawn) [muco-inositol]" recorded_value="21.5 % of total Leu"
molecule="OC1C(O)C(O)C(O)C(O)C1O (stereo not drawn) [cis-inositol]" recorded_value="36.3 % of total Leu"

**Query** Look up Leu dissolved at 60 seconds (% of total Leu) for this molecule: OC1C(O)C(O)C(O)C(O)C1O [L-chiro-inositol]
**Result** 24.2 % of total Leu

----------
Test: Example 5: effect of inositol isomers on dissolution of L-leucine, LC/UV of filtrate
Format: physicochemical
Details: 3.50 g L-leucine with 0.1 g/16 oz. inositol isomer; water 21° C., 400 rpm; 30 seconds
Use 0.6 g/16 oz. as the dividing line for Leu dissolved at 30 seconds (g/16 oz.), with the line itself on the 1 side and lower values as 0.

These recorded examples may help you get a feel for the data.
molecule="OC1C(O)C(O)C(O)C(O)C1O [L-chiro-inositol]" label_value=0
molecule="OC1C(O)C(O)C(O)C(O)C1O (stereo not drawn) [allo-inositol]" label_value=1
molecule="OC1C(O)C(O)C(O)C(O)C1O (stereo not drawn) [muco-inositol]" label_value=0

**Query** Is the recorded value of Leu dissolved at 30 seconds (g/16 oz.) equal to or greater than 0.6 g/16 oz. for this molecule? OC1C(O)C(O)C(O)C(O)C1O (stereo not drawn) [cis-inositol]
**Result** 1

**Query** Does the reported Leu dissolved at 30 seconds (g/16 oz.) for O[C@H]1[C@H](O)[C@@H](O)[C@H](O)[C@@H](O)[C@@H]1O [scyllo-inositol] fall at or above the 0.6 g/16 oz. mark?
**Result** 0

**Query** Kindly determine if Leu dissolved at 30 seconds (g/16 oz.) recorded for OC1C(O)C(O)C(O)C(O)C1O (stereo not drawn) [epi-inositol] is above or exactly 0.6 g/16 oz..
**Result** 1
